What IC50 was measured for each of the following?
- Tested on: Aldehyde dehydrogenase, dimeric NADP-preferring (Homo sapiens)
- Procedure details: Inhibition of ALDH3A1 (unknown origin) assessed as NADH formation using 4-nitrobenzaldehyde as substrate
Kindly provide the numeric value in nM only, without the unit symbol.

Observed IC50, Aldehyde dehydrogenase, dimeric NADP-preferring (Homo sapiens), "N=C(N)[Se]Cc1ccc(CN2C(=O)C(=O)c3ccccc32)cc1" : 4010

Observed IC50, Aldehyde dehydrogenase, dimeric NADP-preferring (Homo sapiens), "N=C(N)SCc1ccc(CN2C(=O)C(=O)c3cc(Cl)ccc32)cc1" : 3070

Observed IC50, Aldehyde dehydrogenase, dimeric NADP-preferring (Homo sapiens), "N=C(N)SCc1ccc(CN2C(=O)C(=O)c3ccccc32)cc1" : 4200

Observed IC50, Aldehyde dehydrogenase, dimeric NADP-preferring (Homo sapiens), "N=C(N)SCc1ccc(CN2C(=O)C(=O)c3cc(F)ccc32)cc1" : 2860

Observed IC50, Aldehyde dehydrogenase, dimeric NADP-preferring (Homo sapiens), "N=C(N)SCc1ccc(CN2C(=O)C(=O)c3cccc(C(F)(F)F)c32)cc1" : 246

Observed IC50, Aldehyde dehydrogenase, dimeric NADP-preferring (Homo sapiens), "N=C(N)[Se]Cc1ccc(CN2C(=O)C(=O)c3cc(F)cc(Br)c32)cc1" : 368

Observed IC50, Aldehyde dehydrogenase, dimeric NADP-preferring (Homo sapiens), "Br.N=C(N)SCc1ccc(CN2C(=O)C(=O)c3cc(Cl)cc(Cl)c32)cc1" : 219

Observed IC50, Aldehyde dehydrogenase, dimeric NADP-preferring (Homo sapiens), "N=C(N)[Se]Cc1ccc(CN2C(=O)C(=O)c3cccc(F)c32)cc1" : 246

Observed IC50, Aldehyde dehydrogenase, dimeric NADP-preferring (Homo sapiens), "N=C(N)SCc1ccc(CN2C(=O)C(=O)c3cccc(F)c32)cc1" : 241

Observed IC50, Aldehyde dehydrogenase, dimeric NADP-preferring (Homo sapiens), "N=C(N)SCc1ccc(CN2C(=O)C(=O)c3cccc(Cl)c32)cc1" : 3590

Observed IC50, Aldehyde dehydrogenase, dimeric NADP-preferring (Homo sapiens), "N=C(N)[Se]Cc1ccc(CN2C(=O)C(=O)c3cc(Br)ccc32)cc1" : 344

Observed IC50, Aldehyde dehydrogenase, dimeric NADP-preferring (Homo sapiens), "N=C(N)[Se]Cc1ccc(CN2C(=O)C(=O)c3cc(C(F)(F)F)ccc32)cc1" : 1520

Observed IC50, Aldehyde dehydrogenase, dimeric NADP-preferring (Homo sapiens), "Br.N=C(N)SCc1ccc(CN2C(=O)C(=O)c3cc(C(F)(F)F)ccc32)cc1" : 360

====

- Tested on: Aldehyde dehydrogenase, dimeric NADP-preferring (Homo sapiens, UniProt P30838)
- Sequence (P30838 whole entry): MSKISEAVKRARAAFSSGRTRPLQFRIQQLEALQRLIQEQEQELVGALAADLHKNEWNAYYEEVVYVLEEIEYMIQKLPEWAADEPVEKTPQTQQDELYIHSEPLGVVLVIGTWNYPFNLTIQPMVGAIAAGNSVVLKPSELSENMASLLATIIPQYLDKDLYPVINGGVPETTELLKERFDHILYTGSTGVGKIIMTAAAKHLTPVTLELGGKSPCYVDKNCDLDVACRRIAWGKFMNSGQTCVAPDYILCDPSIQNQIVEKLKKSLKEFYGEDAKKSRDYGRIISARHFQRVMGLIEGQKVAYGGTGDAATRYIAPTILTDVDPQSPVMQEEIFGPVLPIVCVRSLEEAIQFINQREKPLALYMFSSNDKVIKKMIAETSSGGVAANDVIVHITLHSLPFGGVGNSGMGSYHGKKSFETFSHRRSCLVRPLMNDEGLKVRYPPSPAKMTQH
- Procedure details: Inhibition of ALDH3A1 (unknown origin) assessed as NADH formation using 4-nitrobenzaldehyde as substrate
Metric name: IC50

# compound "N=C(N)[Se]Cc1ccc(CN2C(=O)C(=O)c3cc(Cl)cc(Cl)c32)cc1" ; its IC50 = 327 nM

# compound "N=C(N)[Se]Cc1ccc(CN2C(=O)C(=O)c3cc(F)ccc32)cc1" ; its IC50 = 2360 nM

# compound "N=C(N)[Se]Cc1ccc(CN2C(=O)C(=O)c3cc(Cl)ccc32)cc1" ; its IC50 = 2770 nM

# compound "N=C(N)SCc1ccc(CN2C(=O)C(=O)c3cc(Br)ccc32)cc1" ; its IC50 = 4880 nM

# compound "N=C(N)[Se]Cc1ccc(CN2C(=O)C(=O)c3cccc(C(F)(F)F)c32)cc1" ; its IC50 = 251 nM

# compound "N=C(N)[Se]Cc1ccc(CN2C(=O)C(=O)c3cccc(Br)c32)cc1" ; its IC50 = > 10000 nM

# compound "N=C(N)[Se]Cc1ccc(CN2C(=O)C(=O)c3cc(Br)cc(Br)c32)cc1" ; its IC50 = 333 nM

# compound "N=C(N)SCc1ccc(CN2C(=O)C(=O)c3cc(F)cc(Br)c32)cc1" ; its IC50 = 219 nM

# compound "N=C(N)SCc1ccc(CN2C(=O)C(=O)c3cccc(Br)c32)cc1" ; its IC50 = 6320 nM

# compound "N=C(N)[Se]Cc1ccc(CN2C(=O)C(=O)c3cccc(Cl)c32)cc1" ; its IC50 = > 10000 nM
